# Method Notes: pKa
# Type: physicochemical
Quantity: pKa
Give the figure only, with no unit attached.

I would be grateful if you could share the reported pKa for COCC1OC(OC2OCC3OC4(OCC(O)(C(C)OC)C5OCOC54)OC3C2OC)C(OC)C(O)C1OC1OC(C)C(OC)C(OC2CC3(C)OC4(CC(O)C(OC5CC(O)C(OC(=O)c6c(C)c(Cl)c(O)c(Cl)c6OC)C(C)O5)C(C)O4)OC3C(C)O2)C1O (stereo not shown) [desevernitrose everninomicin D] .
7.5
